Data provenance is patent US20230233569A1.

This section presents molecules with their documented pIC50 values.
target: KRAS G12V (Homo sapiens, UniProt P01116+P62937, G12V); experiment: Disruption of BRAF RBD interaction with Ras (FRET / MOA assay, with Cyclophilin A); format: biochemical; details: KRAS G12V; read-out: KRAS G12V FRET data IC50
Sequence (P01116 1-169 isoform P01116-2 G12V limits assumed): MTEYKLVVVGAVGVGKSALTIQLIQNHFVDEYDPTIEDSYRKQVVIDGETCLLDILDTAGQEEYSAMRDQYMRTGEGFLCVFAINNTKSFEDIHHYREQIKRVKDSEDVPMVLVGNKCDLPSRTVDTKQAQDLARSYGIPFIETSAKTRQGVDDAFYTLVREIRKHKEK
Sequence (P62937 whole entry): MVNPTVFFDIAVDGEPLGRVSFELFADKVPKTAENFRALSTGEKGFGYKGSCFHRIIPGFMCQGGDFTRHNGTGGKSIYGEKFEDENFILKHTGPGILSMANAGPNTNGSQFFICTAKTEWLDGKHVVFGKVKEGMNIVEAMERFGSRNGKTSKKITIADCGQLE
pIC50: −log10 of the molar value.

| smiles-str | pIC50 |
| --- | --- |
| CCn1c(-c2cccnc2[C@H](C)OC)c2c3cc(cnc31)-c1csc(n1)C[C@H](NC(=O)[C@H](C(C)C)N(C)C(=O)N1CC(OC)C1)C(=O)N1CCC[C@H](N1)C(=O)OCC(C)(C)C2 | 5.00 to 6.00 |
| CCn1c(-c2cnccc2COC)c2c3cc(ccc31)-c1cc(O)cc(c1)C[C@H](NC(=O)[C@H](C(C)C)N(C)C(=O)[C@H]1CCN(C(C)C)C1)C(=O)N1CCC[C@H](N1)C(=O)OCC(C)(C)C2 | 5.00 to 6.00 |
| CCn1c(-c2cccnc2[C@H](C)OC)c2c3cc(ccc31)-c1cccc(c1)C[C@H](NC(=O)[C@H](C(C)C)N1CC[C@]3(CCN(C(=O)C#C[C@@H]4COCCN4C4COC4)C3)C1=O)C(=O)N1CCC[C@H](N1)C(=O)OCC(C)(C)C2 | 5.00 to 6.00 |

Param item = CCn1c(-c2cccnc2[C@H](C)OC)c2c3cc(ccc31)-c1cc(O)cc(c1)C[C@H](NC(=O)[C@H](C(C)C)N(C)C(=O)[C@@H]1CCNC1)C(=O)N1CCC[C@H](N1)C(=O)OCC(C)(C)C2 ; retrieve measured pIC50. 6.00 to 7.00

Param item = CCn1c(-c2cccnc2[C@H](C)OC)c2c3cc(ccc31)-c1cc(O)cc(c1)C[C@H](NC(=O)[C@H](C(C)C)N(C)C(=O)[C@H]1C[C@H](O)C1)C(=O)N1CCC[C@H](N1)C(=O)OCC(C)(C)C2 ; retrieve measured pIC50. 6.00 to 7.00

---

This section presents compounds with their documented IC50 values.
Biological target: KRAS G13C (Homo sapiens, UniProt P01116+P62937, G13C)
Sequence (P01116 1-169 isoform P01116-2 G13C): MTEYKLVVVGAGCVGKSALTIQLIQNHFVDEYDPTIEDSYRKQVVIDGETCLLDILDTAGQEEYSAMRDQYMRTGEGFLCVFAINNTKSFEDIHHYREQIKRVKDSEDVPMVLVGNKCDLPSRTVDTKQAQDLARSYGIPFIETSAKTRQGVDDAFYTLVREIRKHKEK
Sequence (P62937 whole entry): as the sequence (P62937 whole entry) above
Assay: Disruption of BRAF RBD interaction with Ras (FRET / MOA assay, with Cyclophilin A)
Assay type: biochemical
Conditions: read-out: KRAS G13C FRET data, IC50
Text: This protocol may also be executed substituting other Ras proteins or nucleotides. The purpose of this biochemical assay was to measure the ability of test compounds to facilitate ternary complex formation between a nucleotide-loaded K-Ras isoform and Cyclophilin A; the resulting ternary complex disrupts binding to a BRAF^RBD construct, inhibiting K-Ras signaling through a RAF effector. Data is reported as IC50 values. […]

Param item = CCn1c(-c2cc(N3CCN(C)CC3)cnc2[C@H](C)OC)c2c3cc(ccc31)-c1csc(n1)C[C@H](NC(=O)[C@H](C(C)C)N(C)C(=O)[C@H]1CCNC1=O)C(=O)N1CCC[C@H](N1)C(=O)OCC(C)(C)C2 (single isomer, unassigned) [Example A449] ; retrieve measured IC50. 100 to 1000 nM

Param item = CCn1c(-c2cccnc2[C@H](C)OC)c2c3cc(ccc31)-c1csc(n1)C[C@H](NC(=O)[C@H](C(C)C)N(C)C(=O)N1CCN(C(=O)C3(N(C)C)CC3)CC1)C(=O)N1CCC[C@H](N1)C(=O)OCC(C)(C)C2 (atropisomer, axis not shown) [Example A443] ; retrieve measured IC50. 100 to 1000 nM

Param item = CCn1c(-c2cccnc2[C@H](C)OC)c2c3cc(ccc31)-c1cc(O)cc(c1)C[C@H](NC(=O)[C@H](C(C)C)N(C)C(=O)[C@@H]1C[C@H]1C)C(=O)N1CCC[C@H](N1)C(=O)OCC(C)(C)C2 [Example A147] ; retrieve measured IC50. 10 to 100 nM

Param item = CCn1c(-c2cccnc2[C@H](C)OC)c2c3cc(ccc31)-c1cc(O)cc(c1)C[C@H](NC(=O)[C@H](C1CCCC1)N(C)C(=O)N1CCS(=O)(=NC)CC1)C(=O)N1CCC[C@H](N1)C(=O)OCC(C)(C)C2 [Example A426] ; retrieve measured IC50. 10 to 100 nM

---

molecular target: NRAS WT (Homo sapiens, UniProt P01111+P62937); assay: Disruption of BRAF RBD interaction with Ras (FRET / MOA assay, with Cyclophilin A); type: biochemical; conditions: NRAS WT; read-out: NRAS WT FRET data IC50
Sequence (P01111 whole entry, one chain of several): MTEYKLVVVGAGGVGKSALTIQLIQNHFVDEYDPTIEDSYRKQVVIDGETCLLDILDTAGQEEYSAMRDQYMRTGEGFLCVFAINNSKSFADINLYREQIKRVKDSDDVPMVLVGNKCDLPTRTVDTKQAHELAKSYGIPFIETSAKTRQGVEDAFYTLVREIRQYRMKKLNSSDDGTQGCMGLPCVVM
pIC50: −log10 of the molar value.
This section presents molecules with their documented pIC50 values.

| molecule | measurement-label | measured |
| --- | --- | --- |
| CCn1c(-c2cccnc2[C@H](C)OC)c2c3cc(ccc31)-c1csc(n1)C[C@H](NC(=O)[C@H](C(C)C)N(C)C(=O)N(C)C)C(=O)N1CCC[C@H](N1)C(=O)OCC(C)(C)C2 (racemic) | pIC50 | 7.00 to 8.00 |
| CCn1c(-c2cccnc2[C@H](C)OC)c2c3cc(ccc31)-c1csc(n1)C[C@H](NC(=O)[C@H](C(C)C)N(C)C(=O)N1CC([C@@H](C)CO)C1)C(=O)N1CCC[C@H](N1)C(=O)OCC(C)(C)C2 (single isomer, unassigned) | pIC50 | 7.00 to 8.00 |
| CCn1c(-c2cccnc2[C@H](C)OC)c2c3cc(ccc31)-c1csc(n1)C[C@H](NC(=O)[C@H]1CCCO1)C(=O)N1CCC[C@H](N1)C(=O)OCC(C)(C)C2 (atropisomer, axis not shown) | pIC50 | 6.00 to 7.00 |

Param item = CCn1c(-c2cccnc2[C@H](C)OC)c2c3cc(ccc31)-c1csc(n1)C[C@H](NC(=O)[C@H](C(C)C)N(C)C(=O)N1CC(C3CN(C)C3)C1)C(=O)N1CCC[C@H](N1)C(=O)OCC(C)(C)C2 (atropisomer, axis not shown) ; retrieve measured pIC50. 6.00 to 7.00

Param item = CCn1c(-c2cccnc2[C@H](C)OC)c2c3cc(ccc31)-c1csc(n1)C[C@H](NC(=O)[C@H](C(C)C)N(C)C(=O)N1CCC3(CN(C)C3)C1)C(=O)N1CCC[C@H](N1)C(=O)OCC(C)(C)C2 (atropisomer, axis not shown) ; retrieve measured pIC50. 7.00 to 8.00

Param item = CCn1c(-c2cc(N3CCN(C)CC3)cnc2[C@H](C)OC)c2c3cc(ccc31)-c1cc(O)cc(c1)C[C@H](NC(=O)[C@H](C1CCCC1)N(C)C(=O)[C@H]1OCC[C@H]1c1ccccc1)C(=O)N1CCC[C@H](N1)C(=O)OCC(C)(C)C2 ; retrieve measured pIC50. 6.00 to 7.00

---

molecular target: KRAS G12D (Homo sapiens, UniProt P01116+P62937, G12D); experiment: Ras-Raf disruption / FRET / MOA assay (BRAF RBD); format: biochemical; details: Ras-Raf disruption, with Cyclophilin A; read-out: KRAS G12D FRET data IC50
Sequence (P01116 1-169 isoform P01116-2 G12D limits assumed, one chain of several): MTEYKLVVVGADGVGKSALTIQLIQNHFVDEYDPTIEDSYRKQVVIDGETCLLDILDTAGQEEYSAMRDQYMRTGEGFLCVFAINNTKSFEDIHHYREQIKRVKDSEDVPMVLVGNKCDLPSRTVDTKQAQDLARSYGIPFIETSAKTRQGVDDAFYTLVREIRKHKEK
This section presents compounds with their documented IC50 values.

Record excerpt, results attached:
| compound | IC50 |
| --- | --- |
| CCn1c(-c2cccnc2[C@H](C)OC)c2c3cc(ccc31)-c1cc(O)cc(c1)C[C@H](NC(=O)[C@H](C(C)C)N(C)C(=O)[C@H]1CCCN(C(=O)[C@H]3CN3)C1)C(=O)N1CCC[C@H](N1)C(=O)OCC(C)(C)C2 | 100 to 1000 nM |
| CCn1c(-c2cccnc2[C@H](C)OC)c2c3cc(ccc31)-c1csc(n1)C[C@H](NC(=O)[C@H](C(C)C)N(C)C(=O)N1CCN(C(=O)[C@@H]3CN3)CC1)C(=O)N1CCC[C@H](N1)C(=O)OCC(C)(C)C2 | 100 to 1000 nM |

Param item = CCn1c(-c2cccnc2[C@H](C)OC)c2c3cc(ccc31)-c1csc(n1)C[C@H](NC(=O)[C@H](C(C)C)N(C)C(=O)N1CC[C@H](N(C)C(=O)[C@@H]3CN3)C1)C(=O)N1CCC[C@H](N1)C(=O)OCC(C)(C)C2 (atropisomer, axis not shown) ; retrieve measured IC50. 1000 to 10000 nM

Param item = CCn1c(-c2cccnc2[C@H](C)OC)c2c3cc(ccc31)-c1csc(n1)C[C@H](NC(=O)[C@H](C(C)C)N(C)C(=O)N1CCN(C(=O)[C@H]3CN3)[C@H](C)C1)C(=O)N1CCC[C@H](N1)C(=O)OCC(C)(C)C2 ; retrieve measured IC50. 100 to 1000 nM

---

target: KRAS G12D (Homo sapiens, UniProt P01116+P62937, G12D); test: Disruption of BRAF RBD interaction with Ras (FRET / MOA assay, with Cyclophilin A); format: biochemical; conditions: read-out: KRAS G12D FRET data, IC50
This section presents compounds with their documented IC50 values.

Param item = CCn1c(-c2cccnc2[C@H](C)OC)c2c3cc(ccc31)-c1csc(n1)C[C@H](NC(=O)[C@H](C(C)C)N(C)C(=O)N1CC[C@]3(CCN(C)C3=O)C1)C(=O)N1CCC[C@H](N1)C(=O)OCC(C)(C)C2 (single isomer, unassigned) [Example A461] ; retrieve measured IC50. 1 to 10 µM

Param item = C=C[C@@H]1C[C@]1(N)C(=O)N(C)[C@H](C(=O)N[C@H]1Cc2cc(O)cc(c2)-c2ccc3c(c2)c(c(-c2cccnc2[C@H](C)OC)n3CC)CC(C)(C)COC(=O)[C@@H]2CCCN(N2)C1=O)C(C)C [Example A149] ; retrieve measured IC50. 0.1 to 1 µM

Param item = CCn1c(-c2cccnc2[C@H](C)OC)c2c3cc(ccc31)-c1csc(n1)C[C@H](NC(=O)[C@H](C(C)C)N(C)C(=O)N1CCN3CCOC[C@@H]3C1)C(=O)N1CCC[C@H](N1)C(=O)OCC(C)(C)C2 [Example A547] ; retrieve measured IC50. 1 to 10 µM

Param item = C=CC(=O)N1CC[C@H](C(=O)N(C)[C@H](C(=O)N[C@H]2Cc3cc(O)cc(c3)-c3ccc4c(c3)c(c(-c3cncc(CCN(C)C)c3)n4CC)CC(C)(C)COC(=O)[C@@H]3CCCN(N3)C2=O)C(C)C)C1 [Example A081] ; retrieve measured IC50. > 10 µM

Param item = CO[C@@H](COC1CN(C(=O)C#CC(C)(C)N(C)C)C1)C(=O)N[C@H]1Cc2cccc(c2)-c2ccc3c(c2)c(c(-c2cccnc2[C@H](C)OC)n3CC(F)(F)F)CC(C)(C)COC(=O)[C@@H]2CCCN(N2)C1=O [Example A556] ; retrieve measured IC50. > 10 µM

Param item = CCn1c(-c2cc(N3CCN(C)CC3)cnc2[C@H](C)OC)c2c3cc(ccc31)-c1csc(n1)C[C@H](NC(=O)[C@H](C1CCCC1)N(C)C(=O)N1CCC1)C(=O)N1CCC[C@H](N1)C(=O)OCC(C)(C)C2 (atropisomer, axis not shown) [Example A529] ; retrieve measured IC50. 0.1 to 1 µM

Param item = CCn1c(-c2cccnc2[C@H](C)OC)c2c3cc(ccc31)-c1csc(n1)C[C@H](NC(=O)[C@H](C(C)C)N(C)C(=O)N1CC(CO)C1)C(=O)N1CCC[C@H](N1)C(=O)OCC(C)(C)C2 (atropisomer, axis not shown) [Example A356] ; retrieve measured IC50. 0.1 to 1 µM

Param item = CCn1c(-c2cccnc2[C@H](C)OC)c2c3cc(ccc31)-c1csc(n1)C[C@H](NC(=O)[C@H](C(C)C)N(C)C(=O)N(C)C(C)C)C(=O)N1CCC[C@H](N1)C(=O)OCC(C)(C)C2 [Example A350] ; retrieve measured IC50. 0.1 to 1 µM

Param item = CCn1c(-c2cccnc2[C@H](C)OC)c2c3cc(ccc31)-c1csc(n1)C[C@H](NC(=O)[C@H](C(C)C)N(C)C(=O)N1C[C@H]3OCCN(C)[C@H]3C1)C(=O)N1CCC[C@H](N1)C(=O)OCC(C)(C)C2 (atropisomer, axis not shown) [Example A451] ; retrieve measured IC50. 1 to 10 µM
